Reported IC50, Phospholipase A2 (Apis mellifera, UniProt P00630).
State the result as a value with its unit after it.

| Compound | IC50 |
| --- | --- |
| C[C@H]1CC[C@@]23C[C@]2(C)CCC[C@@H]3[C@@]1(C)CCC1=CC[C@H](C2=CC(=O)O[C@H]2O)OC1 [CACOSPONGIONOLIDE] | 2.3 µM |

Could you share which IC50 value was measured for CC1=CCC[C@@H]2[C@@](C)(CCC3=CC[C@H](C4=CC(=O)O[C@H]4O)OC3)[C@@H](C)CC[C@@]12C [CACOSPONGIONOLIDE E] ?
2.8 µM

----------
experiment: Cytotoxicity against human neutrophils by MTT assay; format: cell-based; conditions: neutrophil

| Molecule | Activity |
| --- | --- |
| CC1=C(CC/C(C)=C/CCC2=CC[C@H](C3=CC(=O)O[C@H]3O)O[C@H]2O)C(C)(C)CCC1 [MANOALIDE] | Not Active |
| CC1=CCC[C@@H]2[C@@](C)(CCC3=CC[C@H](C4=CC(=O)O[C@H]4O)OC3)[C@@H](C)CC[C@@]12C [CACOSPONGIONOLIDE E] | Not Active |
| C=C1CCC[C@H]2[C@](C)(CCC3=CCC(C4=CC(=O)OC4O)OC3)[C@H](C)CC[C@]12C (some centres undefined) [CACOSPONGIONOLIDE B] | Not Active |
| C[C@H]1CC[C@@]23C[C@]2(C)CCC[C@@H]3[C@@]1(C)CCC1=CC[C@H](C2=CC(=O)O[C@H]2O)OC1 [CACOSPONGIONOLIDE] | Not Active |

----------
molecular target: Phospholipase A2, membrane associated (Homo sapiens, UniProt P14555)
Sequence (P14555 whole entry): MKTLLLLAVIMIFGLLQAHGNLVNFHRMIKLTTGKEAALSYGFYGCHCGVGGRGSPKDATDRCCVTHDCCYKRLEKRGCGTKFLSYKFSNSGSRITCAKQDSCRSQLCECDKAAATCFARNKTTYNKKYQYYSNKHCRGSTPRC
Quantity: pIC50
Please express pIC50 as -log10 of the molar concentration.

Consider the worked cases shown below.
| Compound | pIC50 |
| --- | --- |
| C[C@H]1CC[C@@]23C[C@]2(C)CCC[C@@H]3[C@@]1(C)CCC1=CC[C@H](C2=CC(=O)O[C@H]2O)OC1 [CACOSPONGIONOLIDE] | 5.52 |
| C=C1CCC[C@H]2[C@](C)(CCC3=CCC(C4=CC(=O)OC4O)OC3)[C@H](C)CC[C@]12C (some centres undefined) [CACOSPONGIONOLIDE B] | 5.37 |
| CC1=C(CC/C(C)=C/CCC2=CC[C@H](C3=CC(=O)O[C@H]3O)O[C@H]2O)C(C)(C)CCC1 [MANOALIDE] | 5.41 |

Shift focus to the following entry.
Find the measured pIC50: item CC1=CCC[C@@H]2[C@@](C)(CCC3=CC[C@H](C4=CC(=O)O[C@H]4O)OC3)[C@@H](C)CC[C@@]12C [CACOSPONGIONOLIDE E] , target or system Phospholipase A2, membrane associated (Homo sapiens, UniProt P14555).
5.85

The measured values listed here are drawn from ChEMBL document CHEMBL1150923.
